Source: ChEMBL document CHEMBL1201862

Test system: MDA-MB-231
TEST_DETAILS: NCI tumour cell line growth inhibition, 48 h
Calls of active or inactive are those of the source. Cut-off read from the data, not from the text of the source: active = GI50 up to about 1.1 µM and inactive = higher.
The compounds listed here are annotated with their GI50.
MEASUREMENT_LABEL: GI50

compound=CCOC(=O)c1nnn(CCCCO)c1C(=O)OCC result="> 100 µM (inactive)"
compound=COc1ccc2cc(CNCCCCCCCCCCCCNCc3ccc4cc(OC)ccc4c3)ccc2c1 result="23.5 µM (inactive)"
compound=Cc1cc2nc3c(C#N)c(C)c(CCCl)c(Cl)n3c2cc1C result="2 µM (inactive)"
compound=N#CSC#CCCC#CSC#N result="17.7 µM (inactive)"
compound=CN(C)CCNS(=O)(=O)N(C)C result="> 100 µM (inactive)"
compound=CCCCCC/C=C\CCCCCCCCCc1cccc(O)c1C(=O)O result="> 100 µM (inactive)"
compound="COC1OC(C(=O)O)C2OC(C)(C)OC12 (configuration not stated)" result="> 100 µM (inactive)"
compound="Cc1cc(C)nc(SCC(=O)OC2CC(C)CCC2C(C)C)n1 (configuration not stated)" result="17.9 µM (inactive)"
compound=CN(C)CCSCCO result="> 100 µM (inactive)"
compound="O=[N+]([O-])c1ccc2c(c1)C(N1CCN(CCO)CC1)Cc1ccc(F)cc1S2 (configuration not stated)" result="12.9 µM (inactive)"
compound=O=C1Nc2ccccc2/C1=C\c1c(Cl)nc2n1CCS2 result="19 µM (inactive)"
compound="COC1O[C@@H]2CCN3C(=O)[C@@H](OC(=O)c4ccc([N+](=O)[O-])cc4)[C@H]1C23 (some centres not stated)" result="> 100 µM (inactive)"

====

System: 786-0
TEST_DETAILS: NCI tumour cell line growth inhibition, 48 h
Structures can show the parent of a compound that is named as a salt. Calls of active or inactive are those of the source. Cut-off read from the data, not from the text of the source: active = GI50 up to about 1.1 µM and inactive = higher.
Below, each entry is listed alongside its reported GI50.
MEASUREMENT_LABEL: GI50

molecule=CC1=NN(c2nc(N)nc(NS(=O)(=O)c3cc(C)c(Cl)cc3S)n2)C(C)(C)C1 target_under_test=786-0 result="> 10 µM (inactive)"
molecule="COc1cc(CC2c3cc(OC)c(OC)cc3CCN2C)c(Oc2cc3c(cc2OC)-c2c(O)c(OC)cc4c2C(C3)N(C)CC4)cc1OC (stereo not given)" target_under_test=786-0 result="23.1 µM (inactive)"
molecule=N#Cc1ccc(/C=C2\Cc3ccccc3C2=O)cc1 target_under_test=786-0 result="> 100 µM (inactive)"
molecule="Cc1ccc(C2SC(=N)Nc3c2c(C)nn3C(=O)c2ccncc2)cc1 (stereo not given)" target_under_test=786-0 result="> 10 µM (inactive)"
molecule=O=c1[nH]c(=S)c2cc3c(=S)[nH]c(=O)n(CCC(c4ccccc4)(c4ccccc4)c4ccccc4)c3nc2n1CCC(c1ccccc1)(c1ccccc1)c1ccccc1 target_under_test=786-0 result="> 100 µM (inactive)"
molecule="O=C1CCCC1C(=O)Nc1ccc2ccccc2c1 (stereo not given)" target_under_test=786-0 result="> 100 µM (inactive)"
molecule=c1ccc2sc(C3(N4CCCCCC4)CCCCC3)cc2c1 target_under_test=786-0 result="19.1 µM (inactive)"
molecule="C#Cc1cccc(Nc2ncnc3cc(OCCOC)c(OCCOC)cc23)c1 [ERLOTINIB HYDROCHLORIDE]" target_under_test=786-0 result="8.91 µM (inactive)"
molecule=O=S(=O)(NCn1ccc2ccccc21)c1ccccc1 target_under_test=786-0 result="> 100 µM (inactive)"
molecule=CCN(CC)CCNc1ccc([N+](=O)[O-])c2nc3ccc(OC)cc3c(N)c12 target_under_test=786-0 result="0.614 µM (active)"
